- test.system: ATP-dependent DNA helicase Q1 (Homo sapiens)
- run.description: qHTS Validation Assay for Inhibitors of RecQ-Like Dna Helicase 1 (RECQ1) (AID 2353)
- condition.notes: recombinant RECQ1 helicase DNA unwinding assay; series mostly up to 25.6 µM
Activity calls are given as the source filed them. Calls follow the shape of the dose curve; as a rule, active = well fitted inhibition curve with a large enough effect; inconclusive = small, poorly fitted or top-dose-only effect; inactive = flat fitted curve, though single readings scatter.
value.type: outcome

Some compounds with recorded outcome:
compound: N#CC(C#N)=C(N)/C(C#N)=C/c1ccc(O)cc1
outcome: inactive

compound: CCN(CC)CCCCCCCCOC(=O)c1cc(OC)c(OC)c(OC)c1
outcome: inactive

compound: CCCn1c(=O)c2[nH]c(C3CCCC3)nc2n(CCC)c1=O
outcome: inactive

compound: CCCCCCCCCC(=O)NC(CN1CCOCC1)[C@H](O)c1ccccc1 (stereo partly specified)
outcome: inactive

compound: O=C1OC(=O)C2C3CCC(O3)C12 (stereo unspecified)
outcome: inactive

With those in mind, consider the next compound.
Ask: Give a short answer stating reported outcome for NCCC1CCCC(CCN)N1 (stereo unspecified) .
Result: inactive
